- Experiment description: Pharmacokinetic study in rats after oral administration
- Format: in vivo
- Experimental conditions: male, Wistar, rat, plasma
Recorded metric: Tmax (min)

[[record]]
molecule = "CCC(C)(C)C(=O)O[C@H]1C[C@@H](C)C=C2C=C[C@H](C)[C@H](CC[C@@H]3C[C@@H](O)CC(=O)O3)[C@H]21 [Simvastatin, simvastatin]"
recorded_metric = "Tmax"
numeric_readout = 45

[[record]]
molecule = "N[C@@H](CC(=O)N1CCn2c(nnc2C(F)(F)F)C1)Cc1cc(F)c(F)cc1F [Sitagliptin, sitagliptin]"
recorded_metric = "Tmax"
numeric_readout = 60


====

- Experiment description: Pharmacokinetic study in rats after oral administration
- Type: in vivo
- Experimental conditions: male, Wistar, rat, plasma
Recorded metric: half-life (h)

[[record]]
input_smiles = "N[C@@H](CC(=O)N1CCn2c(nnc2C(F)(F)F)C1)Cc1cc(F)c(F)cc1F"
numeric_readout = 6.1

[[record]]
input_smiles = "CCC(C)(C)C(=O)O[C@H]1C[C@@H](C)C=C2C=C[C@H](C)[C@H](CC[C@@H]3C[C@@H](O)CC(=O)O3)[C@H]21"
numeric_readout = 5.6

